The values you see were collected from the RepoRT retention time repository.

Assay: HILIC, Waters ACQUITY UPLC BEH HILIC, 150 × 2.1 mm, 1.7 µm, 40 °C, 0.6 mL/min, estimated dead time 0.55 min; A: water + 0.1% formic acid + 20 mM ammonium formate, pH 3.5; B: acetonitrile + 0.1% formic acid, pH 3; gradient (min/%B) 0/95 0.1/95 4.6/80 5.5/50 7.0/50 7.1/95 7.2/95 7.3/95 7.4/95 7.5/95 7.6/95 7.7/95 7.8/95 12.50/95 12.65/95
Conditions: stereoisomer not certain
LC retention time: recorded values
Report as a plain number; the unit min is understood.

Solved entries:
1. CC(=O)OC(CC(=O)[O-])C[N+](C)(C)C [L-Acetylcarnitine CAR(2:0)] ... 5.03
2. C[N+]1(C)CCCC1C(=O)[O-] (stereo not drawn) [Proline Betaine] ... 4.91

Now, please, on to the next compound.
Request: Look up LC retention time: CN(CC(=O)O)C(=N)N [Creatine]
Result: 5.06
